- test target: SARM1 (Homo sapiens, UniProt Q6SZW1)
- Construct: AviTag […]; made in house; host or cells: NRK1-HEK293T cells, transiently transfected; the clarified sonicated lysate was used without purification
- procedure details: ARM-SAM-TIR SARM1 IC50 assay (NADase activity, NAD+ cleavage)
- Assay type: biochemical
- cond: ARM-SAM-TIR lysate 5 μg/mL from NRK1-HEK293T cells; 2 h pre-incubation with compound, 5 μM NAD+, 2 hr room temperature; NAD+ and ADPR by RapidFire mass spectrometry; read-out: SARM1 IC50
pIC50: −log10 of the molar value.
molecules and their reported pIC50

Request the reported pIC50 associated with N#Cc1cc(N2CC[C@H](O)C2)nc2ccc(Cl)cc12 > 5.30

// pIC50 lookup, key: CC(C)(C)OC(=O)NC1CCN(c2cc(C#N)c3cc(C4CCOC4)ccc3n2)CC1 (stereo not drawn) > 5.30

Requested read-out: pIC50. Entry: NC(=O)c1cc(N2CCC(NCCO)CC2)nc2ccc(Cl)cc12 < 4.52

---
Query (molecule): CN(CC1CC1)C(=O)C1CCN(c2cc(C#N)c3cc(Br)ccc3n2)CC1 ; field requested: pIC50 > 5.30

Please give the measured pIC50 for this molecule: N#Cc1cc(N2CCC[C@H](N)C2)nc2ccc(Cl)cc12 > 5.30

###

- test target: SARM1 (Homo sapiens, UniProt Q6SZW1)
- Construct: AviTag […]; made in house; host or cells: NRK1-HEK293T cells, transiently transfected; the clarified sonicated lysate was used without purification
- procedure details: ARM-SAM-TIR SARM1 IC50 assay (NADase activity, NAD+ cleavage)
- Type: biochemical
- cond: ARM-SAM-TIR lysate 5 μg/mL from NRK1-HEK293T cells; 2 h pre-incubation with compound, 5 μM NAD+, 2 hr room temperature; NAD+ and ADPR by RapidFire mass spectrometry; read-out: SARM1 IC50
As shown below, each of these compounds has a reported IC50 value.

Examples with their reported IC50 follow.
Which IC50 is reported for this compound? N#Cc1cc(N2CCSCC2)nc2ccc(Cl)cc12 < 5 µM

Field request: IC50 | item: N#Cc1cc(NC2CCN(Cc3cccnc3)CC2)nc2ccc(Cl)cc12 < 5 µM

Given Cc1ccc2nc(N3CCCCC3)cc(C#N)c2c1 , state its recorded IC50. 5 to 15 µM

Would you mind telling me what IC50 value was observed for N#Cc1cc(N2CCCC(CCC(N)=O)C2)nc2ccc(Cl)cc12 (centres unmarked) ? < 5 µM

As a next step, examine the compound that follows.
GET /values?readout=IC50&item= N#Cc1cc(N2CCC[C@H](NC(=O)c3ccncn3)C2)nc2ccc(Br)cc12 < 5 µM

###

- test target: SARM1 (Homo sapiens, UniProt Q6SZW1)
- Construct: AviTag […]; made in house; host or cells: NRK1-HEK293T cells, transiently transfected; the clarified sonicated lysate was used without purification
- procedure details: ARM-SAM-TIR SARM1 IC50 assay (NADase activity, NAD+ cleavage)
- Assay type: biochemical
- cond: ARM-SAM-TIR lysate 5 μg/mL from NRK1-HEK293T cells; 2 h pre-incubation with compound, 5 μM NAD+, 2 hr room temperature; NAD+ and ADPR by RapidFire mass spectrometry; read-out: SARM1 IC50
measurement kind: IC50

Sample answers from the record:
IC50 for N#Cc1cc(N2CCC[C@H](NC(=O)c3cnccn3)C2)nc2ccc(Br)cc12 [Example 133] ? < 5 µM

Sample N#Cc1cc(N2CCC(N)CC2)nc2ccc(Cl)cc12 [Example 3] — what was its IC50? 5 to 15 µM

Requested read-out: IC50. Entry: C[C@@]1(NS(C)(=O)=O)CCCN(c2cc(C#N)c3cc(Br)ccc3n2)C1 [Example 122] < 5 µM

Request the reported IC50 associated with COCCNC(=O)CNc1cc(C#N)c2cc(Cl)ccc2n1 [Example 29] 15 to 30 µM

# IC50 lookup, item CS(=O)(=O)NC1CCN(c2cc(C#N)c3cc(Br)ccc3n2)CC1 [Example 117] < 5 µM

Moving on to the next compound.
// lookup IC50 for N#Cc1cc(N2CCCCC2)nc2cc(F)c(Cl)cc12 [Example 89] < 5 µM

###

- test target: SARM1 (Homo sapiens, UniProt Q6SZW1)
- Construct: AviTag […]; made in house; host or cells: NRK1-HEK293T cells, transiently transfected; the clarified sonicated lysate was used without purification
- Sequence (Q6SZW1 with tags, fused parts or gaps): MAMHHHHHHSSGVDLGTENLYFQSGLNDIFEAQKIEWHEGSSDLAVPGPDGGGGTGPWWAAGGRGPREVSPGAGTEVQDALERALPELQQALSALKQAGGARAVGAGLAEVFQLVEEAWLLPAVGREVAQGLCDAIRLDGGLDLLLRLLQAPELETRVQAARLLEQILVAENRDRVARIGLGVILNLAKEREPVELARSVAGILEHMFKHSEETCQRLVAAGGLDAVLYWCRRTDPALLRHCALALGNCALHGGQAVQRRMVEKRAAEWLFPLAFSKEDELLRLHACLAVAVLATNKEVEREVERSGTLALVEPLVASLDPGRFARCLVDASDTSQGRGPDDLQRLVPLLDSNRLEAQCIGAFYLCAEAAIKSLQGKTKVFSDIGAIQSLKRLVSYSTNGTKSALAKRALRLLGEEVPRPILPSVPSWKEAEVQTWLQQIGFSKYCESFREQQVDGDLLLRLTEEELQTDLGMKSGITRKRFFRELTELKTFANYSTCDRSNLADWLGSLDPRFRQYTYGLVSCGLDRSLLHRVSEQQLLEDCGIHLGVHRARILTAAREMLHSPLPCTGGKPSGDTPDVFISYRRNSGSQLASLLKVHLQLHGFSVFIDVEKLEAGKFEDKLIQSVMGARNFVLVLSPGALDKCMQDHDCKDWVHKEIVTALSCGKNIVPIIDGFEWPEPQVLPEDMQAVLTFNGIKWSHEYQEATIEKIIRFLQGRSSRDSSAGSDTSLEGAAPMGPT
- procedure details: ARM-SAM-TIR SARM1 IC50 assay (NADase activity, NAD+ cleavage)
- Type: biochemical
- cond: ARM-SAM-TIR lysate 5 μg/mL from NRK1-HEK293T cells; 2 h pre-incubation with compound, 5 μM NAD+, 2 hr room temperature; NAD+ and ADPR by RapidFire mass spectrometry; read-out: SARM1 IC50
measurement kind: IC50

See these solved cases before continuing.
// lookup IC50 | system=SARM1 (Homo sapiens, UniProt Q6SZW1) | key= C[C@@H]1CCCCN1c1cc(C#N)c2cc(Cl)ccc2n1 < 5 µM

Test system SARM1 (Homo sapiens, UniProt Q6SZW1); read-out IC50; what value for Cn1ccnc1C1CCCN(c2cc(C#N)c3cc(Br)ccc3n2)C1 (centres unmarked) ? < 5 µM

Give SARM1 (Homo sapiens, UniProt Q6SZW1) IC50 for N#Cc1cc(N2CCC[C@H](NCc3ccccc3)C2)nc2ccc(Br)cc12 < 5 µM

More entries:
# query: IC50 | item N#Cc1cc(N2CCC[C@@H](N)C2)nc2ccc(Cl)cc12 | system: SARM1 (Homo sapiens, UniProt Q6SZW1) 5 to 15 µM

Kindly state the measured IC50 obtained for CC1CC(CNc2cc(C#N)c3cc(Cl)ccc3n2)CCO1 (centres unmarked) with SARM1 (Homo sapiens, UniProt Q6SZW1). < 5 µM

Quick check: IC50 on SARM1 (Homo sapiens, UniProt Q6SZW1), item N#Cc1cc(N2CCC[C@H](O)C2)nc2ccc(Cl)cc12 ? < 5 µM

###

- test target: SARM1 (Homo sapiens)
- Construct: AviTag […]; made in house; host or cells: NRK1-HEK293T cells, transiently transfected; the clarified sonicated lysate was used without purification
- procedure details: ARM-SAM-TIR SARM1 IC50 assay (NADase activity, NAD+ cleavage)
- Type: biochemical
- Description: This Example describes an assay of ARM-SAM-TTR NADase activity and use of this assay to measure the efficacy of compounds of Formula I or Formula II to block SARM1 mediated NAD+ cleavage. […] The cultures were supplemented with 1 mM NR at time of transfection to minimize toxicity from ARM-SAM-TIR overexpression. […] Protein concentration was determined by the Bicinchoninic (BCA) method and used to normalize lysate concentrations. […]
pIC50: −log10 of the molar value.
Entries and their pIC50

Below: 5 compounds and their reported pIC50.
I have this compound here, CC(C)(C)OC(=O)N1C2CC1CN(c1cc(C#N)c3cc(Cl)ccc3n1)C2 , and I need its recorded pIC50. > 5.30

What value of measured pIC50 is listed for N#Cc1cc(N2CC3CC(C2)N3)nc2ccc(Cl)cc12 ? > 5.30

Which value of pIC50 has been reported for N#Cc1cc(N2C[C@H]3C[C@@H]2CN3)nc2ccc(Cl)cc12 in the records? 4.82 to 5.30

Recorded pIC50 for N#Cc1cc(N2CCNCC2)nc2ccc(Cl)cc12 , please? < 4.52

Given N#Cc1cc(N2CC3CCC2CN3)nc2ccc(Cl)cc12 (stereo not drawn) , state its recorded pIC50. > 5.30

Please examine the following record next.
So what does the record say about pIC50 for N#Cc1cc(N2C3CNCC2C3)nc2ccc(Cl)cc12 ? > 5.30
